Source: patent US12084436B2

Field: inhibition at 10 µM. Provide a value for each of the compounds that follow.
target-or-test-system: HDAC6 enzyme (Homo sapiens)
Construct: prepared by transducing full length HDAC6 gene into Sf-9 insect cells; GST; purchased SignalChem; host or cells: Sf-9 insect cells
Sequence (Q9UBN7 1-1215): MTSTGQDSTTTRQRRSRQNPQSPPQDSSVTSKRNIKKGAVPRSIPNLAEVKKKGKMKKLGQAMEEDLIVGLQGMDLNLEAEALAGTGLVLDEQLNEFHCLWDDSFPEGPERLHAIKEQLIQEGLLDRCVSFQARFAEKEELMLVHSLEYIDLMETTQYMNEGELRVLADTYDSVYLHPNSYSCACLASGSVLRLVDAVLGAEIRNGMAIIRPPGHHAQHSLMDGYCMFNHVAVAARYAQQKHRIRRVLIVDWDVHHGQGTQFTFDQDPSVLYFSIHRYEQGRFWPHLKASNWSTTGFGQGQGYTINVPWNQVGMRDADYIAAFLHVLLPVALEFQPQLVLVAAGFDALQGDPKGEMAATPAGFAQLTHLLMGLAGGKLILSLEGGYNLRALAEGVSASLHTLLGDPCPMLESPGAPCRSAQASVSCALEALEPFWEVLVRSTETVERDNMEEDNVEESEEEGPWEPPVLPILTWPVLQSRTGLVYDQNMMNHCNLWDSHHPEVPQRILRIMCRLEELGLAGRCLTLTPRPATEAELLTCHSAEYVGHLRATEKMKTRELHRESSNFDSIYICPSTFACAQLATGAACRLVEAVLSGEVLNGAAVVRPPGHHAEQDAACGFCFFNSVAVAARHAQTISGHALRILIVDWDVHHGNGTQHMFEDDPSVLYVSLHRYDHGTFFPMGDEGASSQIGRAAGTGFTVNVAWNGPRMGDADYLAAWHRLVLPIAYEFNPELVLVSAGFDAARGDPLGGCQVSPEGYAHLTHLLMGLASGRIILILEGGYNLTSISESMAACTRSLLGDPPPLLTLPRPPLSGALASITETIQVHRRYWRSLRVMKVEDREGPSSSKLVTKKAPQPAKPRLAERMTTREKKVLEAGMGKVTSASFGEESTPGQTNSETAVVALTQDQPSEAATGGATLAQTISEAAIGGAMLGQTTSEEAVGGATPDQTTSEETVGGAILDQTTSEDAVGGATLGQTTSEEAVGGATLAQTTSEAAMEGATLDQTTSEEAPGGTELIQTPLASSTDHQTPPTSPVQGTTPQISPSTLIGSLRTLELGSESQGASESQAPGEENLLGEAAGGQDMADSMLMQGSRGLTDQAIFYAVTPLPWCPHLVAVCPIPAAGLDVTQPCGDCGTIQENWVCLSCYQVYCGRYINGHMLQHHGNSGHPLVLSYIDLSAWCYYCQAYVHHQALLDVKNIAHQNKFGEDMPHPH
measurement-protocol: HDAC6 enzyme inhibitory assay (HDAC-Glo I/II Assay kit, luminescence)
Type: biochemical
study-conditions: 10 μM test compound; wells without enzyme = 100% inhibition; read-out: HDAC6 inhibitory rate (%) (10 μM)
Protocol: HDAC6 Enzyme Inhibitory Assay HDAC6 enzyme prepared by transducing full length HDAC6 gene into Sf-9 insect cells and purifying by GST affinity column were purchased from SignalChem. Using this enzyme, HDAC6 enzyme inhibitory activities of the compound of the present invention were evaluated. […] HDAC6 enzyme inhibitory activity of the compound of the present invention was measured using HDAC-Glo™ I/II Assay kit (Promega) according to the following experimental method. […]
One number for each entry, in %.

Example results:
{"compound": "FC(F)c1nnc(-c2ccnc(-c3nc(Cl)c(Cl)n3Cc3ccccn3)c2)o1 [Example 40a]", "unit-string": "%", "inhibition at 10 µM": 98}
{"compound": "O=C1NN(C2CCOCC2)Cc2ccc(-c3nnc(C(F)F)o3)cc21 [Example 28b]", "unit-string": "%", "inhibition at 10 µM": 97}
{"compound": "Fc1ccc(Cc2ccnn2-c2cc(-c3nnc(C(F)F)o3)ccn2)cc1 [Example 73a]", "unit-string": "%", "inhibition at 10 µM": 100}
{"compound": "Fc1cc(-c2nnc(C(F)F)o2)cc(-c2ncccc2OCC2CCOCC2)c1 [Example 7a]", "unit-string": "%", "inhibition at 10 µM": 100}
{"compound": "O=C(OC1CCOC1)N(Cc1ccc(F)cc1)N1Cc2ccc(-c3nnc(C(F)F)o3)cc2C1=O (centres unmarked) [Example 26c]", "unit-string": "%", "inhibition at 10 µM": 99}

Kindly give each listed record's inhibition at 10 µM.
1. Fc1cccc(Cc2ccnn2-c2cc(-c3nnc(C(F)F)o3)ccn2)c1 [Example 87a]
2. N#Cc1cnc(-c2cc(-c3nnc(C(F)F)o3)ccn2)n1Cc1cccc(F)c1 [Example 82a]
3. Cc1ccccc1Cn1ccnc1-c1cc(-c2nnc(C(F)F)o2)ccn1 [Example 86a]
4. CN1C(=O)c2cc(-c3nnc(C(F)F)o3)ccc2O[C@]1(C)c1ccccc1 [Example 6b]
5. CN(Cc1ccccc1N1CCOCC1)N1Cc2ccc(-c3nnc(C(F)F)o3)cc2C1=O [Example 58c]
6. N#Cc1ccc(Cn2ccnc2-c2cc(-c3nnc(C(F)F)o3)ccn2)cc1F [Example 75a]

a:
1. 99
2. 99
3. 100
4. 99
5. 100
6. 99
